MEASUREMENT NOTES: Tmax in human MDA-MB-231 cells xenografted SCID mouse tumor at 10 mg/kg, po administered as single dose
Assay type: ADME, organism-based, Neoplasm
Set-up: dose 10 mg/kg, route oral
REPORTED METRIC: Tmax (h)
Numeric only. Scale: h

(Q) Any idea what its Tmax is? The compound is CN[C@@H](C)C(=O)N[C@H]1CN(C(=O)CC(C)C)CC[C@H]2CC[C@@H](C(=O)NC(c3ccccc3)c3ccccc3)N2C1=O
(A) 1

---

MEASUREMENT NOTES: in vivo
DETAILS: SCID, mouse, tumor, po, 100 mg/kg
REPORTED METRIC: Cmax
Reply with the number, then its unit.

(Q) Value lookup for Cmax; key = CN[C@@H](C)C(=O)N[C@H]1CN(C(=O)CC(C)C)CC[C@H]2CC[C@@H](C(=O)NC(c3ccccc3)c3ccccc3)N2C1=O
(A) 10800 ng/mL
